# credit: ChEMBL document CHEMBL1148881

Measurement record for Peroxisome proliferator-activated receptor delta (Homo sapiens); quantity recorded: IC50.
Measured Attribute: IC50 (nM)

// below: answered compounds
> print(dat)
                                smiles.data  endpoint.result
1  O=C(O)COc1ccc(SCc2cc(F)ccc2OCc2ccc(C(F)(F)F)cc2)c2c1CCC2              1.7
2  O=C(O)COc1ccc(SCc2c(F)cccc2OCc2ccc(C(F)(F)F)cc2)c2c1CCC2              286
3  O=C(O)COc1ccc(SCc2ccc(OCc3ccc(F)cc3C(F)(F)F)cc2)c2c1CCC2              356
4  CC(C)(C)c1ccc(COc2ccc(CSc3ccc(OCC(=O)O)c4c3CCC4)cc2)cc1              148
5  O=C(O)COc1ccc(SCc2ccc(OCc3ccccc3)cc2)c2c1CCC2              125
6  Cc1cc(SCc2ccc(OCc3ccc(C(F)(F)F)cc3)cc2)ccc1OCC(=O)O               19

P. O=C(O)COc1ccc(SCc2ccc(OCc3ccc(F)cc3)cc2)c2c1CCC2
Q. Cc1cc(SCc2ccc(OCc3ccc(C(F)(F)F)cc3)cc2)c2c(c1OCC(=O)O)CCC2
Req: Kindly identify which of P and Q has the larger recorded IC50 value. Kindly give the label for the entry you pick.
Resp: Q
(Q: 586 nM, P: 191 nM)

====

Measurement record for Peroxisome proliferator-activated receptor delta (Homo sapiens, UniProt Q03181); quantity recorded: pEC50.
pEC50: −log10 of the molar value.
Measured Attribute: pEC50

> print(dat)
                                smiles.data  endpoint.result
1  O=C(O)COc1ccc(SCc2cc(F)ccc2OCc2ccc(C(F)(F)F)cc2)c2c1CCC2             7.15

P. O=C(O)COc1ccc(SCc2ccc(OCc3ccccc3)cc2)c2c1CCC2
Q. O=C(O)COc1ccc(SCc2ccc(OCc3cc(Cl)ccc3Cl)cc2)c2c1CCC2
Req: Kindly identify which of P and Q has the larger recorded pEC50 value. Kindly give the label for the entry you pick.
Resp: Q

a. O=C(O)COc1ccc(SCc2ccc(OCc3ccc(F)cc3C(F)(F)F)cc2)c2c1CCC2
b. Cc1cc(SCc2ccc(OCc3ccc(C(F)(F)F)cc3)cc2)c(Cl)cc1OCC(=O)O
c. O=C(O)COc1ccc(SCc2ccccc2OCc2ccc(C(F)(F)F)cc2)c2c1CCC2
d. O=C(O)COc1ccc(SCc2ccc(OCc3ccc(Cl)cc3)cc2)c2c1CCC2
Req: Put the compounds in ascending order of pEC50. Dear reader, please state the labels in the requested order.
Resp: a, d, b, c
(a: 5.76, d: 6.03, b: 6.43, c: 6.64)

I. COc1ccc(COc2ccc(CSc3ccc(OCC(=O)O)c4c3CCC4)cc2)cc1
II. CC(C)(C)c1ccc(COc2ccc(CSc3ccc(OCC(=O)O)c4c3CCC4)cc2)cc1
III. O=C(O)COc1ccc(SCc2ccc(OCc3ccc(F)cc3)cc2)c2c1CCC2
IV. O=C(O)COc1ccc(SCc2ccc(OCc3ccc(OC(F)(F)F)cc3)cc2)c2c1CCC2
Req: Put the compounds in ascending order of pEC50. Dear reader, please state the labels in the requested order.
Resp: III, I, IV, II

P. O=C(O)COc1ccc(SCc2c(F)cccc2OCc2ccc(C(F)(F)F)cc2)c2c1CCC2
Q. Cc1cc(SCc2ccc(OCc3ccc(C(F)(F)F)cc3)cc2)ccc1OCC(=O)O
Req: Kindly identify which of P and Q has the larger recorded pEC50 value. Kindly give the label for the entry you pick.
Resp: Q
(Q: 6.60, P: 5.58)

====

- System Under Test: Peroxisome proliferator-activated receptor alpha (Homo sapiens)
- Sequence (Q07869 whole entry): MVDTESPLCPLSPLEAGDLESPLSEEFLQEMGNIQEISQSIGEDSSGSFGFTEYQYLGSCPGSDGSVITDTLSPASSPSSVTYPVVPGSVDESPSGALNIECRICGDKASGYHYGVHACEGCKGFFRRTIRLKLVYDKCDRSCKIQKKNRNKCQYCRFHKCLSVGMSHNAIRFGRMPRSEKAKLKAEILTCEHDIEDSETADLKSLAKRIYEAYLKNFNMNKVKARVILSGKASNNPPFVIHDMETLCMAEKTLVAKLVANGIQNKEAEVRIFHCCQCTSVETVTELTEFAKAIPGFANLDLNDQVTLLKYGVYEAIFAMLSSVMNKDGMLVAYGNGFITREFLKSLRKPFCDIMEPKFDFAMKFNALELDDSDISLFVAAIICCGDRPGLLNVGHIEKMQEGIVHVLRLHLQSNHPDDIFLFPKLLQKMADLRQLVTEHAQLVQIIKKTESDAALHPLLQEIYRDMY
pIC50: −log10 of the molar value.
Measured Attribute: pIC50

> print(dat)
                                smiles.data                         system.under.test  measured.attribute  endpoint.result
1  Cc1cc(SCc2ccc(OCc3ccc(C(F)(F)F)cc3)cc2)c2c(c1OCC(=O)O)CCC2  Peroxisome proliferator-activated receptor alpha (Homo sapiens)               pIC50             6.51
2  O=C(O)COc1ccc(SCc2ccc(OCc3ccc(Cl)cc3)cc2)c2c1CCC2  Peroxisome proliferator-activated receptor alpha (Homo sapiens)               pIC50             5.41

1. O=C(O)COc1ccc(SCc2cccc(F)c2OCc2ccc(C(F)(F)F)cc2)c2c1CCC2
2. Cc1cc(SCc2ccc(OCc3ccc(C(F)(F)F)cc3)cc2)c(Cl)cc1OCC(=O)O
3. O=C(O)COc1ccc(SCc2ccc(OCc3ccc(C(F)(F)F)cc3)cc2)c2c1CCC2
4. COc1cc(OCC(=O)O)c(C)cc1SCc1ccc(OCc2ccc(C(F)(F)F)cc2)cc1
Req: Output the entries ranked by pIC50 from maximum down to minimum. Dear reader, please state the labels in the requested order.
Resp: 4, 2, 3, 1
(4: 8.33, 2: 6.89, 3: 5.92, 1: 5.44)

a. O=C(O)COc1ccc(SCc2ccc(OCc3ccc(F)cc3C(F)(F)F)cc2)c2c1CCC2
b. Cc1cc(SCc2ccc(OCc3ccc(C(F)(F)F)cc3)cc2)c2c(c1OCC(=O)O)CCCO2
c. O=C(O)COc1ccc(SCc2ccc(OCc3ccc(C(F)(F)F)cc3)cc2)c2c1CCCO2
d. CC(C)(C)c1ccc(COc2ccc(CSc3ccc(OCC(=O)O)c4c3CCC4)cc2)cc1
Req: Output the entries ranked by pIC50 from maximum down to minimum. Dear reader, please state the labels in the requested order.
Resp: b, c, d, a

P. COc1ccc(COc2ccc(CSc3ccc(OCC(=O)O)c4c3CCC4)cc2)cc1
Q. Cc1cc(SCc2ccc(OCc3ccc(C(F)(F)F)cc3)cc2)ccc1OCC(=O)O
Req: Kindly identify which of P and Q has the larger recorded pIC50 value. Kindly give the label for the entry you pick.
Resp: Q
(Q: 6.24, P: 5.31)

====

Measurement record for Peroxisome proliferator-activated receptor delta (Homo sapiens, UniProt Q03181); quantity recorded: pIC50.
pIC50: −log10 of the molar value.
Measured Attribute: pIC50

// below: answered compounds
> print(dat)
                                smiles.data                         system.under.test  endpoint.result
1  O=C(O)COc1ccc(SCc2ccc(F)cc2OCc2ccc(C(F)(F)F)cc2)c2c1CCC2  Peroxisome proliferator-activated receptor delta (Homo sapiens, UniProt Q03181)             7.21
2  O=C(O)COc1ccc(SCc2cccc(F)c2OCc2ccc(C(F)(F)F)cc2)c2c1CCC2  Peroxisome proliferator-activated receptor delta (Homo sapiens, UniProt Q03181)             6.95
3  O=C(O)COc1ccc(SCc2ccc(OCc3ccc(OC(F)(F)F)cc3)cc2)c2c1CCC2  Peroxisome proliferator-activated receptor delta (Homo sapiens, UniProt Q03181)             7.12
4  O=C(O)COc1ccc(SCc2ccc(OCc3ccc(Cl)cc3)cc2)c2c1CCC2  Peroxisome proliferator-activated receptor delta (Homo sapiens, UniProt Q03181)             7.05

P. COc1ccc(COc2ccc(CSc3ccc(OCC(=O)O)c4c3CCC4)cc2)cc1
Q. O=C(O)COc1ccc(SCc2ccc(OCc3cc(Cl)ccc3Cl)cc2)c2c1CCC2
R. Cc1cc(SCc2ccc(OCc3ccc(C(F)(F)F)cc3)cc2)c2c(c1OCC(=O)O)CCCO2
S. O=C(O)COc1ccc(SCc2ccccc2OCc2ccc(C(F)(F)F)cc2)c2c1CCC2
T. Cc1cc(SCc2ccc(OCc3ccc(C(F)(F)F)cc3)cc2)c(Cl)cc1OCC(=O)O
Req: Output the entries ranked by pIC50 from maximum down to minimum. Dear reader, please state the labels in the requested order.
Resp: S, T, Q, P, R
